experimental-details: Cmax in DIO mouse brain at 10 mg/kg, po
Type: ADME, organism-based
Design: dose 10 mg/kg, route oral
measured-metric: Cmax (ng/g)

[[record]]
smiles_code = "O=C(NC1CCN(Cc2ccc(C(=O)NCCN3CCCC3)c(F)c2)CC1)c1cc(=O)c2ccc(F)cc2o1"
measured_metric = "Cmax"
value_reported = 185


---

experimental-details: Drug level in DIO mouse plasma at 10 mg/kg, po after 12 hrs
Format: ADME, organism-based
Parameters: dose 10 mg/kg, route oral
measured-metric: concentration at 12 h (ng/mL)

[[record]]
smiles_code = "O=C(NC1CCN(Cc2ccc(C(=O)NCCN3CCCC3)c(F)c2)CC1)c1cc(=O)c2ccc(F)cc2o1"
measured_metric = "concentration at 12 h"
unit_info = "ng/mL"
value_reported = 38


---

experimental-details: AUC (0 to infinity) in DIO mouse plasma at 10 mg/kg, po
Format: ADME, organism-based
Design: time infinity, dose 10 mg/kg, route oral
measured-metric: AUC(0-inf) (ng·h/mL)

[[record]]
smiles_code = "O=C(NC1CCN(Cc2ccc(C(=O)NCCN3CCCC3)c(F)c2)CC1)c1cc(=O)c2ccc(F)cc2o1"
unit_info = "ng·h/mL"
value_reported = 3150


---

target: hERG (KCNH2) (Homo sapiens, UniProt Q12809)
experimental-details: Inhibition of hERG-mediated tail current expressed in HEK293 cells at 30 uM by patch clamp method
Type: toxicity, cell-based
test-parameters: HEK293 cells that express hERG
measured-metric: inhibition at 30 µM

[[record]]
smiles_code = "O=C(NC1CCN(Cc2ccc(C(=O)NCCN3CCCC3)c(F)c2)CC1)c1cc(=O)c2ccc(F)cc2o1"
value_reported = "21%"


---

pIC50 for assorted molecules
target: Voltage-gated inwardly rectifying potassium channel KCNH2 (Homo sapiens, UniProt Q12809)
Sequence (Q12809 whole entry): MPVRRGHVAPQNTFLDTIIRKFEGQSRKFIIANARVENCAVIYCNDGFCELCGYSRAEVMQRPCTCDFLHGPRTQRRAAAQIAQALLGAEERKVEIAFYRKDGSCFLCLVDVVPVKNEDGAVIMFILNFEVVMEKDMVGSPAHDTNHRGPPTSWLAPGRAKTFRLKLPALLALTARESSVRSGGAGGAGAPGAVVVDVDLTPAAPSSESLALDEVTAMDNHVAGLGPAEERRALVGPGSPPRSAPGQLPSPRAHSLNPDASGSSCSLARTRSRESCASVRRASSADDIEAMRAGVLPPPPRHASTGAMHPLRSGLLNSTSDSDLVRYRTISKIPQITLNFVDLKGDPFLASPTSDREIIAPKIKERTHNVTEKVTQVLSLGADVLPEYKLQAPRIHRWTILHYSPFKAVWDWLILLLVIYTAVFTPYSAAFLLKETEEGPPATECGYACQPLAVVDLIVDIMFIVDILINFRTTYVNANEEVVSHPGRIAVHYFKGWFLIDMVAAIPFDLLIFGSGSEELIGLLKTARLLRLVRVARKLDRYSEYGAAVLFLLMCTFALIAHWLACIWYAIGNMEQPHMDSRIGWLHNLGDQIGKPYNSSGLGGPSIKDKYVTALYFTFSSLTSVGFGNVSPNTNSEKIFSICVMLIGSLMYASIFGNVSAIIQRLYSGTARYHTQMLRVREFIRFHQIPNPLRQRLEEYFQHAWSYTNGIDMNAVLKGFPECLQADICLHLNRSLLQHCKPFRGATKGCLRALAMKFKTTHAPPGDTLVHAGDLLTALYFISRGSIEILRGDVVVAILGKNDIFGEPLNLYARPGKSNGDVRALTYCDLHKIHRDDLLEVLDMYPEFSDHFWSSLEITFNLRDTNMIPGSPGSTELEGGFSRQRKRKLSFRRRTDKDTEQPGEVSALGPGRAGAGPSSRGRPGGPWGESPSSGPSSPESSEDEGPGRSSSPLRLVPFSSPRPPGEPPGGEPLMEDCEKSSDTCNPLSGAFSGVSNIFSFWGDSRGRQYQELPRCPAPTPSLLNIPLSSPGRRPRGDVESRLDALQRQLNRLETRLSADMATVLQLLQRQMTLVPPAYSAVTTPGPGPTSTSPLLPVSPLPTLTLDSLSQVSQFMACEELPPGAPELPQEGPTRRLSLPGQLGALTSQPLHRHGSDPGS
pIC50: −log10 of the molar value.
measured-metric: pIC50

[[record]]
smiles_code = "COC(C)(C)CCOc1ccc(CN2CCC(NC(=O)c3cc(=O)c4ccc(F)cc4o3)CC2)cc1"
prefix_operator = "="
value_reported = 5.37

[[record]]
smiles_code = "COc1cc(C(=O)NCCN2CCCC2)ccc1CN1CCC(NC(=O)c2cc(=O)c3ccc(F)cc3o2)CC1"
prefix_operator = "="
value_reported = 5.18

[[record]]
smiles_code = "O=C(CCN1CCCCC1)Nc1ccc(CN2CCC(NC(=O)c3cc(=O)c4ccc(F)cc4o3)CC2)cc1F"
prefix_operator = "="
value_reported = 5.04

[[record]]
smiles_code = "O=C(NC1CCN(Cc2ccc(OCCCN3C(=O)CSC3=O)c(F)c2)CC1)c1cc(=O)c2ccc(F)cc2o1"
prefix_operator = "="
value_reported = 5.07

[[record]]
smiles_code = "O=C(NC1CCN(Cc2ccc(C(=O)NCCN3CCCC3)c(F)c2)CC1)c1cc(=O)c2ccc(F)cc2o1"
prefix_operator = "<"
value_reported = 4.00

[[record]]
smiles_code = "O=C(NCCN1CCCC1)c1ccc(CN2CCC(NC(=O)c3cc(=O)c4ccc(F)cc4o3)CC2)c(Cl)c1"
prefix_operator = "="
value_reported = 4.96


---

experimental-details: Half life in DIO mouse brain at 10 mg/kg, po
Format: ADME, organism-based
Set-up: dose 10 mg/kg, route oral
measured-metric: half-life (h)

[[record]]
smiles_code = "O=C(NC1CCN(Cc2ccc(C(=O)NCCN3CCCC3)c(F)c2)CC1)c1cc(=O)c2ccc(F)cc2o1"
unit_info = "h"
value_reported = 8


---

experimental-details: Half life in DIO mouse plasma at 10 mg/kg, po
Format: ADME, organism-based
Set-up: dose 10 mg/kg, route oral
measured-metric: half-life (h)

[[record]]
smiles_code = "O=C(NC1CCN(Cc2ccc(C(=O)NCCN3CCCC3)c(F)c2)CC1)c1cc(=O)c2ccc(F)cc2o1"
unit_info = "h"
value_reported = 2


Where these numbers come from: ChEMBL document CHEMBL1139188
